system: Rattus norvegicus; assay: Anti-inflammatory activity in Charles Foster albino Rattus norvegicus (rat) assessed as inhibition of carrageenan-induced paw edema at 50 mg/kg, po […] measured up to 3 hr relative to control; assay type: functional
1 means recorded inhibition in vivo at 50 mg/kg is 30% or above; 0 means it is below 30%.

COc1ccc(OC)c(-c2nc(-c3ccncc3)no2)c1: 1
COc1ccc(OC)c(C2CC(c3ccccn3)=NN2)c1 (configuration not stated): 0
COc1ccc(OC)c(C2CC(c3ccccn3)=NN2c2ccccc2)c1 (configuration not stated): 0
CN(C)c1ccc(C2CC(c3ccncc3)=NN2c2ccccc2)cc1 (configuration not stated): 1
COc1cc(-c2nc(-c3ccncc3)no2)ccc1O: 0

Decide: inhibition in vivo at 50 mg/kg of COc1ccc(OC)c(-c2nc(-c3ccccn3)no2)c1 >= 30%?
0

Decide: inhibition in vivo at 50 mg/kg of COc1ccc(OC)c(C2CC(c3cccnc3)=NN2c2ccccc2)c1 (configuration not stated) >= 30%?
0
